- System: MDA-MB-231
- method-notes: NCI tumour cell line growth inhibition, 48 h
Active and inactive are the calls of the source. No stated cut-off is given here; in the data, active = GI50 up to about 1.1 µM and inactive = higher.
Permitted responses: class 1 = active, class 0 = inactive

Field: example entries. Status: answers known.
1) CSc1nc2c(c(=O)[nH]1)N=C(c1ccccc1)CC(c1ccccc1)N2 (centres undefined): class 0
2) CCCCC[C@H]1CCCCCCCCCC(=O)OC2C(O[C@@H]3OC(C)[C@H](OC(=O)[C@@H](C)CC)C(O[C@@H]4OC(C)[C@H](O)C(O)[C@@H]4O)[C@@H]3OC(=O)[C@H](C)CC)[C@H](OC3C(O)[C@@H](O)C(C)O[C@H]3O1)OC(CO)[C@H]2O (some centres undefined): class 0
3) CCOc1ccc2nc3cc(/N=N/c4ccc(N)nc4N)ccc3c(N)c2c1: class 0
4) COc1cc(Nc2n[nH]c(NS(=O)(=O)c3cc(C)c(Cl)cc3S)n2)cc(OC)c1OC: class 0
5) CN1CCN(c2ccc3c(c2)NCC(=O)N3)CC1: class 0
6) C/C(=N\NC(=O)c1ccncc1)c1ccccc1Cl: class 0

Request: Any idea what this test logged for C=C(CN(C)C)C(=O)c1ccccc1OC ?
Result: class 0

Request: Per the assay record, what outcome was assigned to Cc1nc2[nH]ncn2c(=O)c1CCCl ?
Result: class 0

Request: What did this assay record as the result for CCN(CC)C(=O)CCN1CC1 ?
Result: class 0

Request: Could you kindly confirm the outcome this assay logged for O=C1c2ccccc2C2CNC1(O)c1ccccc12 (centres undefined) ?
Result: class 0

Request: Each compound tested received a call. Report the one for OCc1cc2c([nH]c3ccccc32)c(C(O)CO)n1 (centres undefined) .
Result: class 0

Request: For CC1CC/C(=C\c2ccc(F)cc2)C2=C1C(c1ccc(F)cc1)NC(=S)N2 (centres undefined) , which call appears in the assay record?
Result: class 0

Request: Hello, I am checking results. What call was entered for CCOP(=O)(O)CN1CCNCCN(CP(=O)(O)OCC)CCNCC1 ?
Result: class 0

Request: Call for entry C[C@@H]1C[C@H](O)[C@]2(O)O[C@@H]3C[C@@]4(C=O)[C@@H](CC[C@@H]5[C@@H]4CC[C@]4(C)[C@@H](C6=CC(=O)OC6)CC[C@]54O)C[C@H]3O[C@@H]2O1 :
Result: class 1

###

- System: K562
- method-notes: NCI tumour cell line growth inhibition, 48 h
Calls of active or inactive are those of the source. Cut-off read from the data, not from the text of the source: active = GI50 up to about 1.1 µM and inactive = higher.
# Lookup of reported GI50 keyed by entry

Reference set, count: 3
1) O=[N+]([O-])c1ccc(-c2cn(-c3ccc(Cl)cc3)cn2)cc1: > 100 µM (inactive)
2) CCc1cccc(C)c1NC(=O)CC1C(=O)Nc2ccccc2S1(=O)=O (configuration not stated): 2.92 µM (inactive)
3) Cn1c(=S)c2nc(SCCCc3ccccc3)[nH]c2n(C)c1=O: 19.7 µM (inactive)

Request: Query (molecule): Cc1cc2oc(-c3ccccc3)c(C)c(=O)c2c2c1OC(C)(C)S2 ; field requested: GI50
Result: 30.9 µM (inactive)

Request: Bench note: what GI50 did CCOC(=O)C(C)(C)Oc1ccc2c(-c3ccc(Cl)cc3)cc(=O)oc2c1 show?
Result: > 100 µM (inactive)

Request: Quick check: GI50 of CC(=O)/C=C/C1=C(C)CCCC1(C)CC(C)C (configuration not stated) ?
Result: 16 µM (inactive)

Request: Look up GI50: NNc1nnc(-c2ccccc2)nc1Cc1ccccc1
Result: 5.65 µM (inactive)

###

- Test system: SR
- method-notes: NCI tumour cell line growth inhibition, 48 h
Calls of active or inactive are those of the source. No stated cut-off is given here; in the data, active = GI50 up to about 1.1 µM and inactive = higher.
measured-attribute: GI50

Request: I'd like to know its GI50. The compound in question is NCCN1CCCCCc2ccccc21
Result: > 10 µM (inactive)

Request: # lookup: GI50 of Cn1c2ccccc2n2c(=O)c3c(c(C#N)c12)CCCC3
Result: > 100 µM (inactive)

Request: Report GI50 for COC(O)C(=O)c1c2c(cc3c1CCC3)CCCC2 (stereo unspecified) please.
Result: 4 µM (inactive)

Request: For NC(=O)c1ccc[n+](C2=C([N-]S(=O)(=O)c3ccccc3)C(=O)c3ccccc3C2=O)c1 , what is its reported GI50?
Result: 33.6 µM (inactive)

Request: Please report the recorded GI50 for Cc1nc2[nH]ncn2c(=O)c1CCCl .
Result: > 10 µM (inactive)

###

- Tested on: LOX IMVI
- method-notes: NCI tumour cell line growth inhibition, 48 h
Activity calls are given as the source filed them. Cut-off read from the data, not from the text of the source: active = GI50 up to about 1.1 µM and inactive = higher.
Entries annotated with measured GI50

These solved cases illustrate the format of a correct answer.
1. Cn1c(=O)c2c(nc(C[N+]3([O-])CCOCC3)n2C)n(C)c1=O: > 100 µM (inactive)
2. Cc1c(-c2ccccc2)[nH]n(C2=NCCN2)c1=O: > 100 µM (inactive)
3. CC(=O)N(C(C)=O)c1c(N)n(C)c(=O)[nH]c1=O: > 100 µM (inactive)
4. COC(=O)[C@H]1C[C@H]1NC(=O)C(CC(=O)OCc1ccccc1)NC(=O)OCc1ccccc1 (some centres not stated): 83 µM (inactive)

Request: Would you mind telling me what GI50 value was observed for Cc1cc(Cl)ccc1NC1=NC(=O)C(CC(=O)Nc2ccc([N+](=O)[O-])cc2[N+](=O)[O-])S1 (configuration not stated) ?
Result: 34.9 µM (inactive)

Request: Given Cc1nc2c(s/c(=N\N)n2-c2ccccc2)c(=O)[nH]1 , state its recorded GI50.
Result: > 100 µM (inactive)

Request: Entry COc1ccc2[nH]c3c(C)c4cc[n+](COC(=O)c5ccccc5)cc4c(C)c3c2c1 has what GI50?
Result: 0.21 µM (active)

Request: May I ask what GI50 has been recorded for CCc1nc2cc3cccnc3c(Cl)c2[nH]c1=O ?
Result: > 100 µM (inactive)

Request: Given the entry CCCCC[C@H]1CCCCCCCCCC(=O)OC2C(O[C@@H]3OC(C)[C@H](OC(=O)[C@@H](C)CC)C(O[C@@H]4OC(C)[C@H](O)C(O)[C@@H]4O)[C@@H]3OC(=O)[C@H](C)CC)[C@H](OC3C(O)[C@@H](O)C(C)O[C@H]3O1)OC(CO)[C@H]2O (some centres not stated) , report its measured GI50.
Result: 17 µM (inactive)

Request: Which GI50 reading was recorded for the compound Cn1c(=O)n(C2(C)C[Se]C2)c2ccccc21 ?
Result: > 100 µM (inactive)

###

- Tested on: T47D
- method-notes: NCI tumour cell line growth inhibition, 48 h
Activity calls are given as the source filed them. No stated cut-off is given here; in the data, active = GI50 up to about 1.1 µM and inactive = higher.
Parameter call: string, one of active, inactive

Request: Could you please tell me the result logged for O=C1CC(Sc2nc3ccc(I)cc3c(=O)n2Cc2ccccc2)C(=O)NN1 (stereo not drawn) in this assay?
Result: inactive

Request: // outcome(item) with item = CCOP(C)(=O)/C(Cc1ccc(OC)c(OC)c1)=N\O (stereo not drawn)
Result: inactive

Request: Any idea what this test logged for CCOP(=O)(OCC)OC1c2[nH]ccc2-c2cc(C(=O)OC)[nH]c2C1OC (stereo not drawn) ?
Result: inactive

Request: Recorded test call requested for CC(C)/C(Cl)=N\OC(=O)Nc1cccc(Cl)c1
Result: inactive

Request: How was O=[N+]([O-])C(=C(NCc1ccccc1)NCc1ccccc1)C(Cl)=C(Cl)Cl classified in this test?
Result: inactive

Request: Name the outcome recorded for CCOC(=O)Cn1c(=O)c2nc(SC)sc2n(-c2ccccc2)c1=S in the assay.
Result: inactive

Request: For this compound, state the assay outcome: Cc1nc2cc(/N=N/c3c(O)ccc4ccccc34)ccc2[nH]1
Result: inactive

Request: What did the test return for CC(=O)/C=C/C1=C(C)CCCC1(C)CC(C)C (stereo not drawn) ?
Result: inactive

###

- Tested on: MCF7
- method-notes: NCI tumour cell line growth inhibition, 48 h
Active and inactive are the calls of the source. Cut-off read from the data, not from the text of the source: active = GI50 up to about 1.1 µM and inactive = higher.
Select the matching outcome among label 1 = active, label 0 = inactive

Some solved cases for reference:
1) CCCCCCCC1C(C)c2c([nH]c3ccccc23)C2C(=O)N(c3ccc(OC)cc3)C(=O)C21 (stereo not drawn): label 0
2) Cc1cc(C)n(C(=O)C(C)Sc2nnc(SC(C)C(=O)n3nc(C)cc3C)s2)n1 (stereo not drawn): label 0
3) COC(O)C(=O)c1c2c(cc3c1CCC3)CCCC2 (stereo not drawn): label 0
4) COc1ccc(CC(C#N)c2cc(OC)c(OC)c(OC)c2)cc1 (stereo not drawn): label 1
5) O=c1[nH]nc(Cc2ccccc2)n1O: label 0

Request: Hi team, can someone confirm the assay call for c1csc(-c2sc(-c3ccsc3)cc2Cc2ccsc2)c1 ?
Result: label 0

Request: For CN(C)CCNCCN , what call appears in the results of this test?
Result: label 0

Request: For O=[N+]([O-])C(=C(NCc1ccccc1)NCc1ccccc1)C(Cl)=C(Cl)Cl , which call appears in the assay record?
Result: label 0
